system-under-test: T1, human neonatal Fc receptor (hFcRn) (human, UniProt P55899 24-290; P61769 21-119)
T1 construct: Biotinylated in the ELISA, Octet and yeast assays; also called human FcRn; huFcRn
T1 sequence (P55899 24-290 limits assumed, chain 1 of 2): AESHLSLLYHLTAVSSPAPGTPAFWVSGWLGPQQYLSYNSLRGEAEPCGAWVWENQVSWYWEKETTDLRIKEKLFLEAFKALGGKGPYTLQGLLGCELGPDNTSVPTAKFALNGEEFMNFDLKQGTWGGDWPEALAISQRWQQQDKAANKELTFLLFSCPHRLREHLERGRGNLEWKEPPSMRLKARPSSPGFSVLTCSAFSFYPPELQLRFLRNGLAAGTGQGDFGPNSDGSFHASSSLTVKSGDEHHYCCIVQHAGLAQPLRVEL
T1 sequence (P61769 21-119 limits assumed, chain 2 of 2): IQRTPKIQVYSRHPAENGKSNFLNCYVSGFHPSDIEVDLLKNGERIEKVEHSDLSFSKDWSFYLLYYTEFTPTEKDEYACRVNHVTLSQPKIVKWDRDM
test-description: SPR competition pH 5.5
endpoint-label: pEC50
For clarity, pEC50 is expressed as the negative log10 of concentration in mol/L.

Req: Value lookup for pEC50; key = variant Fc-fragment Fc-5-106-M4S (other) EPKSCDKTHTCPPCPAPELLGGPSVFLFPPKPKDTLMISRTPEVTCVVVDVSHEDPEVKFNWYVDGVEVHNAKTKPREEQYNSTYRVVSVLTVLHQDWLNGKEYKCKVSNKALPAPIEKTISKAKGQPREPQVYTLPPSRDELTKNQVSLTCLVKGFYPSDIAVEWESNGGCVFNSFNCGGGQPENNYKTTPPVLDSDGSFFLYSKLTVDKSRWQQGNVFSCSVMHEALHNHYTQKSLSLSPGK
Resp: 7.24

Just for reference, patent US20140356358A1 is where these values come from.
